Recorded protein stability index by entry
B1: ALDH8A1 (parent)
chain: FTGSQPTAERITQLSAPHCKKLSL

# Variants of: B1
# assay notes: protein stability index of a GFP-peptide fusion (GPS, HEK-293T) (PSI 1-6); higher = more stable;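 also: lentivirally expressed fusions sorted by FACS into six bins by GFP to DsRed ratio, PSI derived from sequencing read proportions per bin multiplied by bin number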
# cond: c terminus: a fixed tail appended
In your answer, state the number alone without any accompanying words.

In [3]: df
Out[3]:
                  polymer_sequence          recorded_metric  recorded_measurement
0  FTGSQPTAERITQLSAPCCKKLSL [H18C]  protein stability index                  1.94
1   FTGRQPTAERITQLSAPHCKKLSL [S4R]  protein stability index                  1.62
2  FTGSQPTAERITQLSAPHDKKLSL [C19D]  protein stability index                  2.73
3   FTGSQPTKERITQLSAPHCKKLSL [A8K]  protein stability index                   1.8
4   TTGSQPTAERITQLSAPHCKKLSL [F1T]  protein stability index                  4.27
5   FTGSQPTAYRITQLSAPHCKKLSL [E9Y]  protein stability index                  3.14

Briefly, protein stability index measured for FTGSQPTAERITQLSAPHCKKNSL [L22N] : 2.54

Briefly, protein stability index measured for FTGPQPTAERITQLSAPHCKKLSL [S4P] : 2.67

Briefly, protein stability index measured for FTGSQPTAERITQLSNPHCKKLSL [A16N] : 2.58

Briefly, protein stability index measured for FTGWQPTAERITQLSAPHCKKLSL [S4W] : 3.16

Briefly, protein stability index measured for FTGSQPTAERITQLSAPHCFKLSL [K20F] : 1.52
